Assay: modulators of AGP1-GFP expression in yeast TOR pathway, primary screen, cell-based, multiplex flow cytometry, S. cerevisiae, MLPCN library (AID 2066);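 also: median GFP channel fluorescence of the gated AGP1 strain per well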
Conditions: 3 h, at 10 µM, stronger effect = higher value, GFP as percent of DMSO wells
The whole screen tested about 320,000 compounds, of which about 50 (0.02%) were called active. For the sample, actives were picked, then their nearest neighbours and some compounds at random.
Here the recorded GFP response vs DMSO is given for each entry.

Some solved cases for reference:
compound: COC(=O)c1c(C)oc(C)c1S(=O)(=O)Nc1ccc(C(C)C)cc1
endpoint label: GFP response vs DMSO
observed: 110% (inactive)
--
compound: O=C(O)C(F)(F)C(NCc1ccccc1)c1ccccc1 (configuration not stated)
endpoint label: GFP response vs DMSO
observed: 102% (inactive)
--
compound: CC(C)(C)NC(=O)NC(=O)COC(=O)C1(C)CC1(Cl)Cl (configuration not stated)
endpoint label: GFP response vs DMSO
observed: 102% (inactive)
--
compound: CCN(CC)c1ccc(NC(=O)c2ccc(=O)[nH]c2)cc1S(=O)(=O)Nc1ccc(OC)cc1
endpoint label: GFP response vs DMSO
observed: 108% (inactive)
--
compound: Cn1nccc1C(=O)NC1CCCc2c1cnn2-c1ccc(F)cc1F (configuration not stated)
endpoint label: GFP response vs DMSO
observed: 95.7% (inactive)

**Q:** Dear colleague, please send me the reported GFP response vs DMSO for Cc1ccc2[nH]c(=O)c(CN(C)S(=O)(=O)c3cccc4nonc34)cc2c1 when you can.
**A:** 118% (inactive)

**Q:** Dear colleague, please send me the reported GFP response vs DMSO for O=C(CCc1[nH]c2ccccc2c1Sc1ccccc1)N(CCO)CCO when you can.
**A:** 99.2% (inactive)

* * *

Assay: modulators of AGP1-GFP expression in yeast TOR pathway, primary screen, cell-based, multiplex flow cytometry, S. cerevisiae, MLPCN library (AID 2066);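 also: median GFP channel fluorescence of the gated AGP1 strain per well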
Conditions: 3 h, at 10 µM, stronger effect = higher value, GFP as percent of DMSO wells
Hit rate of the full screen: of about 320,000 compounds, about 50 (0.02%) were called active. The sample as a whole holds a higher share of actives than the screen did.
endpoint label: GFP response vs DMSO

molecule: O=C(NC(=O)c1cc(OCC(F)(F)F)ccc1OCC(F)(F)F)Nc1ccccc1
observed: 100% (inactive)

molecule: Cc1nnc(CN(C)Cc2cn[nH]c2-c2ccc(-c3ccccc3)cc2)o1
observed: 108% (inactive)

**Q:** Dear colleague, please send me the reported GFP response vs DMSO for O=C(CSc1cccc[n+]1[O-])NCCCc1ccccc1 when you can.
**A:** 101% (inactive)

* * *

Experiment: modulators of AGP1-GFP expression in yeast TOR pathway, primary screen, cell-based, multiplex flow cytometry, S. cerevisiae, MLPCN library (AID 2066);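 also: median GFP channel fluorescence of the gated AGP1 strain per well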
Settings: 3 h, at 10 µM, stronger effect = higher value, GFP as percent of DMSO wells
About 50 (0.02%) of roughly 320,000 compounds were called active. This excerpt belongs to a sample that is enriched for actives.
endpoint label: GFP response vs DMSO (%)
Could you give me the number in %? Just the number is fine.

Some solved cases for reference:
compound: O=c1cc(Cl)c2ccccc2n1-c1ccccc1
unit of measurement: %
GFP response vs DMSO: 103

compound: COc1ccccc1NC(=O)C1=C(C)Nc2nc3ccccc3n2C1c1cccs1 (centres undefined)
unit of measurement: %
GFP response vs DMSO: 97.6

compound: CCCCc1nnc(NC(=O)CS(=O)(=O)Cc2ccccc2)s1
unit of measurement: %
GFP response vs DMSO: 101

compound: CC1CN(C(=O)c2cc(COc3c(F)cccc3F)on2)CCN1C (centres undefined)
unit of measurement: %
GFP response vs DMSO: 102

compound: CCOc1ncccc1C(=O)OCC(=O)Nc1cccc(S(=O)(=O)N2CCCCCC2)c1
unit of measurement: %
GFP response vs DMSO: 100

**Q:** Dear colleague, please send me the reported GFP response vs DMSO for Cc1cccc(OCC(=O)OCC(=O)Nc2ccc(Cl)cn2)c1 when you can.
**A:** 106

**Q:** Dear colleague, please send me the reported GFP response vs DMSO for COc1ccc(C(=O)N2CCN(c3ncccn3)CC2)cc1S(=O)(=O)N1CCOCC1 when you can.
**A:** 98.3

**Q:** Dear colleague, please send me the reported GFP response vs DMSO for CCn1cc(C(=O)N2CC(C)CC(C)C2)c(=O)c2cc(S(=O)(=O)N3CCCC3)ccc21 (centres undefined) when you can.
**A:** 93.8

**Q:** Dear colleague, please send me the reported GFP response vs DMSO for CCOC(=O)C1CCCN(S(=O)(=O)c2ccc(-n3cnnn3)c(C)c2)C1 (centres undefined) when you can.
**A:** 107

**Q:** Dear colleague, please send me the reported GFP response vs DMSO for C=CCn1c(SCC(N)=O)nnc1-c1cc2c(s1)CCC(CC)C2 (centres undefined) when you can.
**A:** 93.9

**Q:** Dear colleague, please send me the reported GFP response vs DMSO for Cc1noc(C)c1CSc1nnc2ccc3ccccc3n12 when you can.
**A:** 97.5

**Q:** Dear colleague, please send me the reported GFP response vs DMSO for COc1ccc(CCNC2=CC(=O)CC(C)(C)C2)cc1 when you can.
**A:** 111

**Q:** Dear colleague, please send me the reported GFP response vs DMSO for CCOc1ccc(N(C(=O)c2snc(C(N)=O)c2N)C(C(=O)NCC2CCCO2)c2c[nH]c3ccccc23)cc1 (centres undefined) when you can.
**A:** 101

**Q:** Dear colleague, please send me the reported GFP response vs DMSO for CCCCCCCCCCCCC(NC(C)=O)(C(=O)OCC)C(=O)OCC when you can.
**A:** 94.5

**Q:** Dear colleague, please send me the reported GFP response vs DMSO for COc1ccc(-c2nnc(NC(=O)CS(=O)(=O)c3ccc(Cl)cc3)o2)c(OC)c1 when you can.
**A:** 100

**Q:** Dear colleague, please send me the reported GFP response vs DMSO for O=C(COC(=O)COc1cc(Cl)c(Cl)cc1Cl)NC1CC1 when you can.
**A:** 101

**Q:** Dear colleague, please send me the reported GFP response vs DMSO for Cc1cc(NC(=O)CCC(=O)N(CC(=O)NC2CCCC2)c2ccc(F)cc2)no1 when you can.
**A:** 103

* * *

Experiment: modulators of AGP1-GFP expression in yeast TOR pathway, primary screen, cell-based, multiplex flow cytometry, S. cerevisiae, MLPCN library (AID 2066);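 also: median GFP channel fluorescence of the gated AGP1 strain per well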
Conditions: 3 h, at 10 µM, stronger effect = higher value, GFP as percent of DMSO wells
Out of some 320,000 compounds screened, about 50 (0.02%) were called active. What follows is part of a selection rich in actives, with near analogues and random picks from the rest.
Here the recorded GFP response vs DMSO is given for each entry.
Could you give me the number in %? Just the number is fine.

Some solved cases for reference:
compound: CC(C)Cc1nnc(NC(=O)CCNC(=O)c2ccccc2Cl)s1
GFP response vs DMSO (%): 105
--
compound: CCC1(C)Cc2c(sc3nnn(CC(=O)Nc4ccc(Cl)cc4)c(=O)c23)CO1 (configuration not stated)
GFP response vs DMSO (%): 98
--
compound: Cc1ccc(S(=O)(=O)NCC(=O)N(CC(=O)NCC2CCCO2)c2cccc(F)c2)cc1 (configuration not stated)
GFP response vs DMSO (%): 114
--
compound: O=C(c1cccc(F)c1)N1CCN(c2ccc([N+](=O)[O-])c3cccnc23)CC1
GFP response vs DMSO (%): 90.5
--
compound: CC(C)(C)c1ccc(C(=O)N2CCN(CCNC(=O)C(=O)Nc3ccc(F)cc3)CC2)cc1
GFP response vs DMSO (%): 100
--
compound: CC(c1ccccn1)N(C)C(=O)c1ccc2nc(Cc3cccc(Cl)c3)oc2c1 (configuration not stated)
GFP response vs DMSO (%): 103

**Q:** Dear colleague, please send me the reported GFP response vs DMSO for COc1cc(NC(=O)CCNC(=O)Cn2ccc3ccccc3c2=O)cc(OC)c1OC when you can.
**A:** 104

**Q:** Dear colleague, please send me the reported GFP response vs DMSO for C#CCO[C@@H]1C[C@H](n2cnc3c(=O)[nH]c(NC(=O)C(C)C)nc32)O[C@@H]1CO when you can.
**A:** 87.2

**Q:** Dear colleague, please send me the reported GFP response vs DMSO for Cc1ccc2cc(C)c(N3CCC(C)CC3)nc2c1 when you can.
**A:** 108

**Q:** Dear colleague, please send me the reported GFP response vs DMSO for Cc1ccccc1NC(=O)C(C)c1ccc(-c2ccccc2)c(F)c1 (configuration not stated) when you can.
**A:** 97.8

**Q:** Dear colleague, please send me the reported GFP response vs DMSO for Cc1noc(C)c1CSCC(=O)N(CCC(C)C)c1c(N)n(Cc2ccccc2)c(=O)[nH]c1=O when you can.
**A:** 102

**Q:** Dear colleague, please send me the reported GFP response vs DMSO for CCCCn1nc(C(=O)N2CCc3ccccc32)c2ccccc2c1=O when you can.
**A:** 98.5
